Each item that follows carries a reported Activity.
- SYSTEM UNDER TEST: Thymidine kinase, cytosolic (Homo sapiens)
- MEASUREMENT DESCRIPTION: Activity against human TK1 assessed as thymidine phosphorylation relative to thymidine
- Format: functional
- Parameters: concentration or dose not given beside the values

Some entries whose results are on file:
* CC(=O)O[C@@]12CO[C@@H]1C[C@H](O)C1(C)C(=O)[C@H](OC(=O)NCCOCCOCCn3c(=O)c(C)cn([C@@H]4C[C@@H](O)[C@H](CO)O4)c3=O)C3=C(C)[C@@H](OC(=O)[C@H](O)[C@@H](NC(=O)c4ccccc4)c4ccccc4)C[C@@](O)([C@@H](OC(=O)c4ccccc4)[C@@H]12)C3(C)C (some centres not stated) | 34%
* CC(=O)O[C@@]12CO[C@@H]1C[C@H](O)C1(C)C(=O)[C@H](OC(=O)NCCCCCn3c(=O)c(C)cn([C@H]4C[C@H](O)[C@@H](CO)O4)c3=O)C3=C(C)[C@@H](OC(=O)[C@H](O)[C@@H](NC(=O)c4ccccc4)c4ccccc4)C[C@@](O)([C@@H](OC(=O)c4ccccc4)[C@@H]12)C3(C)C (some centres not stated) | 49%
* CCC1(O)CC2CN(CCc3c([nH]c4ccccc34)[C@@](C(=O)OC)(c3cc4c(cc3OC)N(C)[C@@H]3C45CCN4CC=C[C@](CC)([C@H]45)[C@@H](O)[C@@]3(O)C(=O)NCCCCn3c(=O)c(C)cn([C@@H]4C[C@@H](O)[C@H](CO)O4)c3=O)C2)C1 (some centres not stated) | 49%
* CC[C@]1(O)CC2CN(CCc3c([nH]c4ccccc34)[C@@](C(=O)OC)(c3cc4c(cc3OC)N(C)[C@@H]3C45CCN4CC=C[C@](CC)([C@H]45)[C@@H](O)[C@@]3(O)C(=O)NCCCCCCn3c(=O)c(C)cn([C@@H]4C[C@@H](O)[C@H](CO)O4)c3=O)C2)C1 (some centres not stated) | 27%
* CC[C@]1(O)CC2CN(CCc3c([nH]c4ccccc34)[C@@](C(=O)OC)(c3cc4c(cc3OC)N(C)[C@@H]3C45CCN4CC=C[C@](CC)([C@H]45)[C@@H](O)[C@@]3(O)C(=O)NCCOCCn3c(=O)c(C)cn([C@H]4C[C@H](O)[C@@H](CO)O4)c3=O)C2)C1 (some centres not stated) | 23%

API: the following record is the query input.
stdin: State, in one line, measured Activity of CC[C@]1(O)CC2CN(CCc3c([nH]c4ccccc34)[C@@](C(=O)OC)(c3cc4c(cc3OC)N(C)[C@@H]3C45CCN4CC=C[C@](CC)([C@H]45)[C@@H](O)[C@@]3(O)C(=O)NCCCn3c(=O)c(C)cn([C@H]4C[C@H](O)[C@@H](CO)O4)c3=O)C2)C1 (some centres not stated)
stdout: 15%
